target: Substance-K receptor (Homo sapiens); assay: Binding affinity was determined by measuring the inhibition of 125 I-NKA binding to transfected CHO cells expressing human recombinant Tachykinin receptor 2; type: cell-based
Quantity Measured: IC50 (nM)

Compound | Quantity Measured | Readout Qualifier | Observed Value
CN(O)C(=O)c1ccc(-c2ccc(Cl)cc2)c(N(C)C(=O)c2cc(C(F)(F)F)cc(C(F)(F)F)c2)c1 | IC50 | > | 1000
CN(C)C(=O)c1ccc(-c2ccc(Cl)cc2)c(N(C)C(=O)c2cc(C(F)(F)F)cc(C(F)(F)F)c2)c1 | IC50 | = | 500
COc1cc(C(=O)N(C)c2cc(C(=O)N[C@@H]3CCCCNC3=O)ccc2-c2ccc(Cl)cc2)cc(OC)c1OC | IC50 | = | 162
CN(C)CCCNC(=O)c1ccc(-c2ccc(Cl)cc2)c(N(C)C(=O)c2cc(C(F)(F)F)cc(C(F)(F)F)c2)c1 | IC50 | = | 108
COc1cc(C(=O)Nc2cc(C(=O)NC3CCCCC3)ccc2-c2ccc(Cl)cc2)cc(OC)c1OC | IC50 | = | 30
CN(C(=O)c1cc(C(F)(F)F)cc(C(F)(F)F)c1)c1cc(C(=O)NC2CCCCC2)ccc1-c1ccc(Cl)cc1 | IC50 | = | 51
COc1cc(C(=O)Nc2cc(C(=O)NC3CCCCNC3=O)ccc2-c2ccc(Cl)cc2)cc(OC)c1OC (configuration not stated) | IC50 | > | 1000

###

Molecular target: Substance-K receptor (Homo sapiens, UniProt P21452)
Sequence (P21452 whole entry): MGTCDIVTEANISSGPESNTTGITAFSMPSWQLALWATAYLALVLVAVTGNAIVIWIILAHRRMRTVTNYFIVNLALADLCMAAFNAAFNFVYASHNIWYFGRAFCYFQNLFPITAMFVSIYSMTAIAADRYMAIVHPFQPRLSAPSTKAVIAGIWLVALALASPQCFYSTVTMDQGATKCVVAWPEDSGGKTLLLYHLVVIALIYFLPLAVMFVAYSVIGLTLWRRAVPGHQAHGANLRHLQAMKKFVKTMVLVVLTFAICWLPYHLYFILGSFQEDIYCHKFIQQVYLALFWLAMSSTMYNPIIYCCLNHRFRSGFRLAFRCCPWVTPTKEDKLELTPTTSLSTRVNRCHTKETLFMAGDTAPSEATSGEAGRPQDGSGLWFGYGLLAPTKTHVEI
Assay: Binding affinity by measuring the inhibition of 125 I-NKA binding to transfected CHO cells expressing human recombinant Tachykinin receptor 2
Assay type: cell-based
Label key: Met means IC50 under 70 nM; Not met means IC50 of 70 nM or more.

Compound | Study System | Assigned Label
CN(C(=O)c1cc(C(F)(F)F)cc(C(F)(F)F)c1)c1cc(C(=O)N[C@@H]2CCCCNC2=O)ccc1-c1ccc(F)cc1 | Substance-K receptor (Homo sapiens, UniProt P21452) | Met
Cc1ccc(-c2ccc(C(=O)N[C@@H]3CCCCNC3=O)cc2N(C)C(=O)c2cc(C(F)(F)F)cc(C(F)(F)F)c2)cc1 | Substance-K receptor (Homo sapiens, UniProt P21452) | Not met
CN(C(=O)c1cc(C(F)(F)F)cc(C(F)(F)F)c1)c1cc(C(=O)NC2CCCCNC2=O)ccc1-c1ccccc1 (configuration not stated) | Substance-K receptor (Homo sapiens, UniProt P21452) | Not met
CN(C(=O)c1ccccc1)c1cc(C(=O)NC2CCCCC2)ccc1-c1ccc(F)cc1 | Substance-K receptor (Homo sapiens, UniProt P21452) | Not met
CN(C(=O)c1cc(C(F)(F)F)cc(C(F)(F)F)c1)c1cc(C(=O)N[C@@H]2CCCCNC2=O)ccc1-c1ccc(Cl)c(Cl)c1 | Substance-K receptor (Homo sapiens, UniProt P21452) | Met
CN(C(=O)c1cc(C(F)(F)F)cc(C(F)(F)F)c1)c1cc(C(=O)NC2CCCCC2)ccc1-c1ccc(F)cc1 | Substance-K receptor (Homo sapiens, UniProt P21452) | Not met
